Test system: colon HCT-15 human cancer cell line
assay: In vitro cytotoxicity against human cancer cell lines (sulforhodamine B), colon HCT-15
Format: cell-based
condition description: 1 × 10^−5 M, 48 hours, read-out: % GROWTH INHIBITION colon HCT-15
Each item that follows carries a reported inhibition at 10 µM.

- compound: "C[C@H]1[C@H](OCCc2cn(-c3ccc(-c4ccc(-n5cc(CCO[C@@H]6O[C@@H]7O[C@@]8(C)CC[C@H]9[C@H](C)CC[C@@H]([C@H]6C)[C@@]79OO8)nn5)cc4)cc3)nn2)O[C@@H]2O[C@@]3(C)CC[C@H]4[C@H](C)CC[C@@H]1[C@@]24OO3 [Compound 13]"
  readout unit: "%"
  inhibition at 10 µM: 56
- compound: "C[C@@H]1CC[C@H]2[C@@H](C)C(=O)O[C@@H]3O[C@@]4(C)CC[C@@H]1[C@]32OO4 [Artemisinin, artemisinin]"
  readout unit: "%"
  inhibition at 10 µM: 29
- compound: "C[C@H]1[C@H](OCc2cn(-c3ccc(-c4ccc(-n5cc(CO[C@@H]6O[C@@H]7O[C@@]8(C)CC[C@H]9[C@H](C)CC[C@@H]([C@H]6C)[C@@]79OO8)nn5)cc4)cc3)nn2)O[C@@H]2O[C@@]3(C)CC[C@H]4[C@H](C)CC[C@@H]1[C@@]24OO3 [Compound 12]"
  readout unit: "%"
  inhibition at 10 µM: 75
- compound: "C[C@H]1[C@H](OCCc2cn(C3O[C@@H]4O[C@@]5(C)CC[C@H]6[C@H](C)CC[C@@H]([C@H]3C)[C@@]46OO5)nn2)O[C@@H]2O[C@]3(C)CC[C@H]4[C@H](C)CC[C@@H]1[C@@]24OO3 (stereo partly shown) [Compound 15]"
  readout unit: "%"
  inhibition at 10 µM: 66
